Origin of values: patent US20230219986A1

Each item that follows carries a reported GI50.
Target of assay: Ba/F3 De119/T790M/C797S EGFR triple mutant cell line (Homo sapiens, UniProt P00533, T790M/C797S, cells depend on it, form not given)
Sequence (P00533 with tags, fused parts or gaps DEL746-750/T790M/C797S, form open): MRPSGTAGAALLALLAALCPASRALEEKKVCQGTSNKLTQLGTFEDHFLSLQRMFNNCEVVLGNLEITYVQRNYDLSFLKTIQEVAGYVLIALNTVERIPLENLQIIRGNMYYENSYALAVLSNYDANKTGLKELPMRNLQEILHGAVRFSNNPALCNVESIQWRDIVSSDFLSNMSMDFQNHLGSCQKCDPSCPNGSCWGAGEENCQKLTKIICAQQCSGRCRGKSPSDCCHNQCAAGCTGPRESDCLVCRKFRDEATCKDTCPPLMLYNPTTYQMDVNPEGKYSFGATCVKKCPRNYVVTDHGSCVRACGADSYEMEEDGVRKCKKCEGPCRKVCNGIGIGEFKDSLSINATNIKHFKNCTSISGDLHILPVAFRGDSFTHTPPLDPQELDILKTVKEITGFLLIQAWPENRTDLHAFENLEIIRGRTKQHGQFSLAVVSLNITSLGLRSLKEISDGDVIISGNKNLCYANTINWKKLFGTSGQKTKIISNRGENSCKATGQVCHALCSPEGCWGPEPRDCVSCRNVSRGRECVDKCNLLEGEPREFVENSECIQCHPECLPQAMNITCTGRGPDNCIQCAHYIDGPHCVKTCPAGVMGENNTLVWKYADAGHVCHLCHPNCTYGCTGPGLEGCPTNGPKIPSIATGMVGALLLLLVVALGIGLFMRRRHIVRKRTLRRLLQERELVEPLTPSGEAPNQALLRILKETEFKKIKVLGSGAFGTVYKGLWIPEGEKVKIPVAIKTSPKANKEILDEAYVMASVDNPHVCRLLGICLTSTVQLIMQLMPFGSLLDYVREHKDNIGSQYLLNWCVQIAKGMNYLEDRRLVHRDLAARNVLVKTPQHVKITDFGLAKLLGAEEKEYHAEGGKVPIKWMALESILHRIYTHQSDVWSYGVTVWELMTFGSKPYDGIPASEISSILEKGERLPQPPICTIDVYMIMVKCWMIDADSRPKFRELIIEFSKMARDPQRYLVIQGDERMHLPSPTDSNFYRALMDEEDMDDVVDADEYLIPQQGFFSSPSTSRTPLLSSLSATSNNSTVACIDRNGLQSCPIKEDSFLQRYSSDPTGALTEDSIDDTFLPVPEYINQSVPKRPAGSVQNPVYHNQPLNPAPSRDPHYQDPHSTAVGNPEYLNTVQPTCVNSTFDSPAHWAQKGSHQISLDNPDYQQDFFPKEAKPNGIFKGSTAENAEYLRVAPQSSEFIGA
Experimental details: Cell proliferation inhibition experiment (CellTiter-Glo), Ba/F3 De119/T790M/C797S
Assay type: cell-based
Condition notes: Ba/F3 Del19/T790M/C797S EGFR triple mutant cells, 72 hours, Cell Titer-Glo; read-out: Ba/F3 (Del19/T790M/C797S) IC50
Protocol: 3) 30 nL of gradient diluted compound was transferred into the 384-well experimental plate using Echo 550 (Labcyte) at a DMSO final concentration of 0.1%, and the culture plate was incubated in a cell incubator for 72 hours (37° C., 5% CO2). 4) 30 μL of Cell Titer-Glo reagent was added to each well and left for 30 minutes at room temperature and protected from light. 5) Envision microplate reader (PerkinElmer) detected chemiluminescence signals. […]
Report the value in nM with no unit label.

{"columns": ["Molecule", "Unit spec", "Assay value"],
 "data": [
  ["COc1cc(N2CCC(F)CC2)c(-c2cnn(C)c2)cc1Nc1ncc(Br)c(Nc2ccc3nccnc3c2P(C)(C)=O)n1", "nM", 3.93],
  ["COc1cc(N2CCN3CCCC[C@@H]3C2)c(-c2cnn(C)c2)cc1Nc1ncc(Br)c(Nc2ccc3nccnc3c2P(C)(C)=O)n1", "nM", 1.7],
  ["Cn1cc(-c2cc(Nc3ncc(Br)c(Nc4ccc5nccnc5c4P(C)(C)=O)n3)c3c(c2N2CCOCC2)CCO3)cn1", "nM", 1.28]
]}

Prompt: Requested read-out: GI50. Entry: `COc1cc(N2CCN(CC3COC3)CC2)c(-c2cnn(C)c2)cc1Nc1ncc(Br)c(Nc2ccc3nccnc3c2P(C)(C)=O)n1`
Completion: 1.1

Prompt: Entry `COc1cc(N2CCC3(CC2)CN(C)CCO3)c(-c2cnn(C)c2)cc1Nc1ncc(Br)c(Nc2cc3c(cc2N(C)S(C)(=O)=O)CC3)n1` : reported GI50 = ?
Completion: 7.7

Prompt: // GI50 lookup, key: `Cn1cc(-c2cc(Nc3ncc(Br)c(Nc4ccc5nccnc5c4P(C)(C)=O)n3)c(OCC(F)(F)F)nc2N2CCOCC2)cn1`
Completion: 2.04

Prompt: Which measured GI50 value corresponds to `COc1cc(N2CCC(N3CCN(C)CC3)CC2)c(-c2cnn(C)c2)cc1Nc1ncc(F)c(Nc2ccc3nccnc3c2P(C)(C)=O)n1` ?
Completion: 36.6

Prompt: Consider the molecule `COc1cc(N2CCN(CCN3CCOCC3)CC2)c(-c2cnn(C)c2)cc1Nc1ncc(Br)c(Nc2ccc3nccnc3c2P(C)(C)=O)n1` and give its measured GI50.
Completion: 3.47

Prompt: Look at this molecule and give its reported GI50. `COc1cc(N2CCN(CCF)CC2)c(-c2cnn(C)c2)cc1Nc1ncc(Br)c(Nc2ccc3nccnc3c2P(C)(C)=O)n1`
Completion: 0.51

Prompt: Consider the molecule `COc1cc(N2CCOCC2)c(-c2cnn(C)c2)cc1Nc1nccc(Nc2ccc3nccnc3c2P(C)(C)=O)n1` and give its measured GI50.
Completion: 6.76

Prompt: What GI50 value was documented for this molecule, `COc1cc(N2CCN(C(=O)C3CC3)CC2)c(-c2cnn(C)c2)cc1Nc1ncc(Br)c(Nc2ccc3nccnc3c2P(C)(C)=O)n1` ?
Completion: 2.25

Prompt: Entry `COc1cc(N2CCC3(CCN(CCF)CC3)CC2)c(-c2cnn(C)c2)cc1Nc1ncc(Cl)c(Nc2ccc3nccnc3c2P(C)(C)=O)n1` : reported GI50 = ?
Completion: 1.74

Prompt: Please look up its GI50: `COc1cc(N2CCOCC2)c(-c2cnn(C)c2)cc1Nc1nc(Nc2ccccc2P(C)(C)=O)c2ccccc2n1`
Completion: 281

Prompt: Any idea what GI50 was measured for COc1cc(N2CCC(N3CC(C)N(C)C(C)C3)CC2)c(-c2cnn(C)c2)cc1Nc1ncc(Br)c(Nc2ccc3nccnc3c2P(C)(C)=O)n1 (centres unmarked) ?
Completion: 7.7
